molecular target: Nucleic Acid; test: Binding affinity to C11U T box antiterminator model RNA at 100 to 300 uM after 130 mins by FRET assay; assay type: nucleic-acid assay

{"molecule": "CN(CCCc1ccccc1)Cc1cn(CC(O)COC(=O)NCc2ccccc2)nn1 (stereo unspecified)", "Kd": "59 µM"}
